Test system: Aβ38
Run Description: Aβ38 in FAD1 iPS cell-derived nerve cells (secondary screening)
Assay type: cell-based, human
Set-up: scale not given here
Readings of Aβ38 for the listed sequences
When you answer, write just the number.

# annotated cases, reported Aβ38 shown
* RIFAXIMIN [compound 97] | 1.09
* CARBADOX [compound 29] | 0.87
* DESOXYCORTICOSTERONE [compound 98] | 1.09

Form field Aβ38, entry BITOSCANATE [compound 123] : 1.01

// Aβ38 value for CEFAMANDOLE [compound 66] : 1.11

----------
Tested on: Aβ43
Run Description: Aβ43 in FAD1 iPS cell-derived nerve cells (secondary screening)
Format: cell-based, human
Design: scale not given here
Experimental: To further study reproducibility of the candidate drugs obtained by the primary screening, secondary screening was conducted. In addition to Aβ40, Aβ42, Aβ42/40 ratio, Aβ38, Aβ43, sAPPα, sAPPβ were also studied and each numerical value was obtained.
Aβ43 overview
Could you keep your reply to the number by itself?

Worked examples, 3 compounds total:
* CCN(CC)CCOc1ccc(/C(=C(\Cl)c2ccccc2)c2ccccc2)cc1 | 0.86
* CC(C)(C)NC[C@H](O)c1ccc(O)c(CO)c1 | 0.91
* CCCCOC(=O)c1ccc(N)cc1 | 0.95

The value of Aβ43 measured for the compound COc1ccc(C(=O)c2ccccc2O)c(O)c1 turned out to be 0.83

Entry CCN(CC)CCNC(=O)c1cc(Br)c(N)cc1OC [compound 86, BROMOPRIDE] , Aβ43 reported as 0.9

----------
System: Aβ43
Run Description: Aβ43 in FAD1 iPS cell-derived nerve cells (secondary screening)
Format: cell-based, human
Design: scale not given here
Reported Aβ43 values for a set of compounds

Completed entries (count: 10):
- CC1CC(OC(=O)C(O)c2ccccc2)CC(C)(C)C1 (stereo not drawn) [compound 40, CYCLANDELATE]: 0.98
- CCN(CCO)CCCC(C)Nc1ccnc2cc(Cl)ccc12 (stereo not drawn) [compound 72, HYDROXYCHLOROQUINE]: 0.87
- Cc1ncc(CNC(=O)N(CCCl)N=O)c(N)n1: 0.89
- COc1ccc(CN2CCNCC2)c(OC)c1OC: 1.09
- C/N=C(\NC#N)NCCSCc1nc[nH]c1C: 0.92
- Cc1cccc(O)c1: 0.89
- CNCCCN1c2ccccc2CCc2ccccc21: 0.9
- CC(C)n1c(/C=C/[C@H](O)C[C@@H](O)CC(=O)O)c(-c2ccc(F)cc2)c2ccccc21: 1.04
- FC(F)(F)COCC(F)(F)F: 0.81
- CC(=O)OC1CCC2(C)C(=CCC3C4CCC(=O)C4(C)CCC32)C1 (stereo not drawn) [compound 109, PRASTERONE ACETATE]: 0.85

For COc1ccccc1OCC(O)CN1CCN(CC(=O)Nc2c(C)cccc2C)CC1 (stereo not drawn) the compound record lists Aβ43 as 0.82

# Aβ43 of CN(C)C(=O)C(CCN1CCC(O)(c2ccc(Cl)cc2)CC1)(c1ccccc1)c1ccccc1 [compound 6, LOPERAMIDE] = 0.88

Input CCOC(=O)OC(C)OC(=O)[C@@H]1N2C(=O)[C@@H](NC(=O)[C@H](N)c3ccccc3)[C@H]2SC1(C)C (stereo partly drawn) . Output Aβ43: 1.44

So, C[C@H](CS)C(=O)N1CCC[C@H]1C(=O)O ? Its Aβ43 was 0.86

For CC[C@H](C)C(=O)O[C@H]1C[C@@H](C)C=C2C=C[C@H](C)[C@H](CC[C@@H]3C[C@@H](O)CC(=O)O3)[C@H]21 the compound record lists Aβ43 as 1.09

For CC(C)C[C@H]1C(=O)N2CCC[C@H]2[C@]2(O)O[C@](NC(=O)[C@@H]3C=C4c5cccc6[nH]c(Br)c(c56)C[C@H]4N(C)C3)(C(C)C)C(=O)N12 the compound record lists Aβ43 as 0.65

Sample OC1CCCCC1N1CCC(c2ccccc2)CC1 (stereo not drawn) ; Aβ43 observed: 0.87

Lab book: Aβ43 of Cc1cccc(C(=O)O)c1O [compound 67, HYDROXYTOLUIC ACID] noted as 0.77

Briefly, Aβ43 measured for CC(C)(Sc1cc(C(C)(C)C)c(O)c(C(C)(C)C)c1)Sc1cc(C(C)(C)C)c(O)c(C(C)(C)C)c1 : 0.65

Reported Aβ43 for O=c1oc2cc(O)ccc2s1 was 0.67

Per the records, this compound ( O=C(O)c1cc(=O)c2c(OCC(O)COc3cccc4oc(C(=O)O)cc(=O)c34)cccc2o1 ) has Aβ43 equal to 0.82

Entry CCCCCCCCCCCCCCCC[N+](C)(C)C ; Aβ43 = 0.56
